Below, each of the compounds is paired with its reported melting point value.

Reference set, count: 3
CCOC(=O)c1cc(CC)n2nc(-c3ccccc3)ccc12 [Compound 5d] | 99 to 101 °C
CCOC(=O)C(CC)n1nc(-c2ccc(F)cc2)ccc1=O (stereo not shown) [Compound 1b] | 59 to 61 °C
CCOC(=O)C(CC)n1nc(-c2ccc(Cl)cc2)ccc1=O (stereo not shown) [Compound 1c] | 49 to 51 °C

Lab note: CCOC(=O)C(CC)n1nc(-c2ccccc2)ccc1=O (stereo not shown) [Compound 1a] gave melting point of 56 to 58 °C

---

# method notes: MTS cytotoxicity assay, HUVEC normal cells
# Type: cell-based, human
# experimental parameters: human, HUVEC human umbilical vein endothelial cells (normal cells), 400 μM, 24 h, read-out: cell viability
metric name: viability at 24 h, 400 µM (%)
Return type: number; implicit unit %.

Lab note: `CCOC(=O)c1cc(CC)n2nc(-c3ccc(Cl)cc3)ccc12` gave viability at 24 h, 400 µM of 90

---

Below, each of the molecules is paired with its reported LC50 at 48 h value.
# method notes: Daphnia magna toxicity assay
# Format: in vivo
# experimental parameters: Daphnia magna, in vivo; 48 h
Return type: number; implicit unit µM.

CCOC(=O)c1cc(CC)n2nc(-c3ccc(Cl)cc3)ccc12 | 428

Lab note: `CCc1cc(C(=O)OC)c2ccc(-c3ccc(F)cc3)nn12` gave LC50 at 48 h of 463

Lab note: CCC(C(=O)O)n1nc(-c2ccccc2)ccc1=O (stereo not drawn) gave LC50 at 48 h of 521

Lab note: `CCc1cc(C(=O)OC)c2ccc(-c3ccccc3)nn12` gave LC50 at 48 h of 46.1

Lab note: `CCOC(=O)c1cc(CC)n2nc(-c3ccc(F)cc3)ccc12` gave LC50 at 48 h of 675

---

# Test system: MCF-7 breast adenocarcinoma cells
# method notes: MTS cytotoxicity assay, MCF-7
# Type: cell-based, human
# experimental parameters: Homo sapiens, MCF7; MCF-7, 48 h; read-out: IC50 MCF-7 48 h
pIC50: −log10 of the molar value.
Below, each of the compounds is paired with its reported pIC50 value.

Reference set, count: 2
CCC(C(=O)O)n1nc(-c2ccccc2)ccc1=O (centres unmarked) | ≤ 3.40
CCc1cc(C(=O)OC)c2ccc(-c3ccc(Cl)cc3)nn12 | ≤ 3.40

Measured on MCF-7 breast adenocarcinoma cells, `CCOC(=O)c1cc(CC)n2nc(-c3ccc(F)cc3)ccc12` has a documented pIC50 of ≤ 3.40

Measured on MCF-7 breast adenocarcinoma cells, `CCOC(=O)c1cc(CC)n2nc(-c3ccc(Cl)cc3)ccc12` has a documented pIC50 of ≤ 3.40

Measured on MCF-7 breast adenocarcinoma cells, CCC(C(=O)O)n1nc(-c2ccc(F)cc2)ccc1=O (centres unmarked) has a documented pIC50 of ≤ 3.40

Measured on MCF-7 breast adenocarcinoma cells, `CCc1cc(C(=O)OC)c2ccc(-c3ccc(F)cc3)nn12` has a documented pIC50 of ≤ 3.40

Measured on MCF-7 breast adenocarcinoma cells, O=c1[nH]cc(F)c(=O)[nH]1 [Compound 5-FU, 5-fluorouracil, reference compound] has a documented pIC50 of 4.22

Measured on MCF-7 breast adenocarcinoma cells, COc1cccc2c1C(=O)c1c(O)c3c(c(O)c1C2=O)C[C@@](O)(C(=O)CO)C[C@@H]3O[C@H]1C[C@H](N)[C@H](O)[C@H](C)O1 [DOX, doxorubicin, reference compound] has a documented pIC50 of 4.94

---

# System: LoVo colon adenocarcinoma cells
# method notes: MTS cytotoxicity assay, LoVo
# Format: cell-based, human
# experimental parameters: Homo sapiens, 48 h, read-out: IC50 LoVo 48 h
metric name: IC50 (µM)
Return type: number; implicit unit µM.

Reference set, count: 3
CCc1cc(C(=O)OC)c2ccc(-c3ccccc3)nn12 [Compound 5a] | 304
CCOC(=O)c1cc(CC)n2nc(-c3ccc(Cl)cc3)ccc12 [Compound 5f] | 353
O=c1[nH]cc(F)c(=O)[nH]1 [Compound 5-FU, 5-fluorouracil, reference compound] | 66.2

Lab note: CCC(C(=O)O)n1nc(-c2ccc(Cl)cc2)ccc1=O (stereo not drawn) [Compound 2c] gave IC50 of 367

---

# method notes: MTS cytotoxicity assay, HUVEC normal cells
# Assay type: cell-based, human
# experimental parameters: human, HUVEC human umbilical vein endothelial cells (normal cells), 400 μM, 48 h, read-out: cell viability
metric name: viability at 48 h, 400 µM (%)
Return type: number; implicit unit %.

Lab note: `CCOC(=O)c1cc(CC)n2nc(-c3ccc(Cl)cc3)ccc12` gave viability at 48 h, 400 µM of 91.6

---

# System: LoVo colon adenocarcinoma cells
# method notes: MTS cytotoxicity assay, LoVo
# Assay type: cell-based
# experimental parameters: Homo sapiens, 400 μM, 48 h, read-out: cell viability
metric name: viability at 400 µM (%)
Return type: number; implicit unit %.

Reference set, count: 2
CCc1cc(C(=O)OC)c2ccc(-c3ccc(Cl)cc3)nn12 | 61.1
CCOC(=O)c1cc(CC)n2nc(-c3ccc(Cl)cc3)ccc12 | 41.8

Lab note: `CCOC(=O)c1cc(CC)n2nc(-c3ccc(F)cc3)ccc12` gave viability at 400 µM of 67.4

---

Below, each of the molecules is paired with its reported IC50 value.
# Test system: LoVo colon adenocarcinoma cells
# method notes: MTS cytotoxicity assay, LoVo
# Format: cell-based, human
# experimental parameters: Homo sapiens, 48 h, read-out: IC50 LoVo 48 h

Reference set, count: 4
CCc1cc(C(=O)OC)c2ccc(-c3ccc(F)cc3)nn12 [Compound 5b] | ≥ 400 µM
CCC(C(=O)O)n1nc(-c2ccccc2)ccc1=O (centres unmarked) [Compound 2a] | ≥ 400 µM
CCC(C(=O)O)n1nc(-c2ccc(F)cc2)ccc1=O (centres unmarked) [Compound 2b] | ≥ 400 µM
CCOC(=O)c1cc(CC)n2nc(-c3ccc(F)cc3)ccc12 [Compound 5e] | ≥ 400 µM

Turning now to a further record.
Lab note: CCc1cc(C(=O)OC)c2ccc(-c3ccc(Cl)cc3)nn12 [Compound 5c] gave IC50 of ≥ 400 µM
